Reported IC50 values are given for each entry in this list.
- Measurement target: human p38 kinase alpha (Homo sapiens)
- Construct: GST (N, cleaved yes); made in house; host or cells: E. coli DH10B
- Measurement description: p38 kinase in vitro assay, phosphorylation of biotinylated PHAS-I with 32P-ATP
- Assay type: biochemical
- Condition description: in vitro P38-alpha kinase inhibition; read-out: P38 alpha kinase IC50
Numeric answer only, unit µM assumed.

// solved cases for IC50 follow
INSERT INTO results (molecule, result_unit, endpoint_result) VALUES
  ('COc1ccc(CC(=O)NC(Cc2ccccc2)c2[nH]nc(-c3ccc(F)cc3)c2-c2ccncc2)cc1OC (stereo not shown) [Example B-0847]', 'µM', 0.73),
  ('CNC(=O)CCC(NC(=O)COC)c1[nH]nc(-c2ccc(F)cc2)c1-c1ccncc1 (stereo not shown)', 'µM', 3.13);

Endpoint output: IC50 of CC(NC(=O)N1CCOCC1)c1[nH]nc(-c2ccc(F)cc2)c1-c1ccncc1 (stereo not shown) . Value?
1.03

###

- Measurement target: human p38 kinase alpha (Homo sapiens, UniProt Q16539)
- Construct: GST (N, cleaved yes); made in house; host or cells: E. coli DH10B
- Sequence (Q16539 whole entry): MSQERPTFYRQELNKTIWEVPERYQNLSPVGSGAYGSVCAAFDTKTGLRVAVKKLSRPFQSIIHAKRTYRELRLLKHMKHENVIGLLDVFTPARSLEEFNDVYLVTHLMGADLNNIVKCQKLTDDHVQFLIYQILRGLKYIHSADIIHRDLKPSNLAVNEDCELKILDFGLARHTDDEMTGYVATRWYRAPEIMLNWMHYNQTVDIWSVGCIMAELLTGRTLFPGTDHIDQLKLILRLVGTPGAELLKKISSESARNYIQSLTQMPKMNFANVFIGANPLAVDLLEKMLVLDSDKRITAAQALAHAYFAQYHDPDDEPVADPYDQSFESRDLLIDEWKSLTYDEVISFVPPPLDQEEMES
- Measurement description: p38 kinase in vitro assay, phosphorylation of biotinylated PHAS-I with 32P-ATP
- Format: biochemical
- Condition description: in vitro P38-alpha kinase inhibition; read-out: P38 alpha kinase IC50
Measurement kind: IC50
Remember to quote the unit after the number.

// solved cases for IC50 follow
INSERT INTO measurements (compound, measurement_target, endpoint_result) VALUES
  ('O=C(NC(Cc1ccccc1)c1[nH]nc(-c2ccc(F)cc2)c1-c1ccncc1)c1ccc(F)c(F)c1F (stereo not drawn) [Example B-0845]', 'human p38 kinase alpha (Homo sapiens, UniProt Q16539)', '1780 nM'),
  ('CC(NC(=O)c1ccccc1Cl)c1[nH]nc(-c2ccc(F)cc2)c1-c1ccncc1 (stereo not drawn)', 'human p38 kinase alpha (Homo sapiens, UniProt Q16539)', '160 nM'),
  ('CC(C)c1ccc(S(=O)(=O)NC(C)c2[nH]nc(-c3ccc(F)cc3)c2-c2ccncc2)cc1 (stereo not drawn)', 'human p38 kinase alpha (Homo sapiens, UniProt Q16539)', '120 nM');

Quick one: IC50 for "N#Cc1cccc(C(=O)NCCc2[nH]nc(-c3ccc(F)cc3)c2-c2ccncc2)c1" ?
710 nM

IC50 for "O=C(NCCc1[nH]nc(-c2ccc(F)cc2)c1-c1ccncc1)c1cccc(F)c1F" ?
470 nM

Value lookup for IC50; key = "CCN(CC)C(=O)N[C@H](C)c1[nH]nc(-c2ccc(F)cc2)c1-c1ccncc1"
830 nM

IC50 for CCN(CC)C(=O)NC(Cc1ccccc1)c1[nH]nc(-c2ccc(F)cc2)c1-c1ccncc1 (stereo not drawn) ?
1500 nM

# input compound: O=S(=O)(NC(Cc1ccccc1)c1[nH]nc(-c2ccc(F)cc2)c1-c1ccncc1)c1cccs1 (stereo not drawn) [Example B-0720] ; wanted: its IC50
1300 nM

Tell me the measured IC50 of CC(NS(=O)(=O)c1ccc2ccccc2c1)c1[nH]nc(-c2ccc(F)cc2)c1-c1ccncc1 (stereo not drawn) [Example B-0652] , please.
190 nM

###

- Measurement target: human p38 kinase alpha (Homo sapiens, UniProt Q16539)
- Construct: GST (N, cleaved yes); made in house; host or cells: E. coli DH10B
- Measurement description: p38 kinase in vitro assay, phosphorylation of biotinylated PHAS-I with 32P-ATP
- Format: biochemical
- Condition description: in vitro P38-alpha kinase; read-out: P38 alpha kinase IC50
Measurement kind: pIC50
Please report pIC50 as the negative decimal logarithm of the molar concentration, giving only the number.

Sample answers from the record:
INSERT INTO assay_data (smiles_notation, measurement_target, endpoint_result) VALUES
  ('Cc1c(-c2ccncc2)c(-c2ccc(F)cc2)nn1CC(=O)NCC(=O)c1ccccc1', 'human p38 kinase alpha (Homo sapiens, UniProt Q16539)', 6.00),
  ('CCCCOc1ccc(S(=O)(=O)NCCCc2[nH]nc(-c3ccc(F)cc3)c2-c2ccncc2)cc1', 'human p38 kinase alpha (Homo sapiens, UniProt Q16539)', 6.13),
  ('N#Cc1ccccc1S(=O)(=O)NCCCc1[nH]nc(-c2ccc(F)cc2)c1-c1ccncc1', 'human p38 kinase alpha (Homo sapiens, UniProt Q16539)', 4.89),
  ('COc1ccccc1CCNC(=O)Cn1nc(-c2ccc(F)cc2)c(-c2ccncc2)c1C', 'human p38 kinase alpha (Homo sapiens, UniProt Q16539)', 6.31),
  ('CC(C)c1ccc(S(=O)(=O)NCCCc2[nH]nc(-c3ccc(F)cc3)c2-c2ccncc2)cc1', 'human p38 kinase alpha (Homo sapiens, UniProt Q16539)', 6.39);

Given the entry "CCCCNC(=O)Cn1nc(-c2ccc(F)cc2)c(-c2ccncc2)c1C" , report its measured pIC50.
5.68

###

Entries annotated with measured P38 alpha kinase % inhib @ conc. (uM)
- Measurement target: human p38 kinase alpha (Homo sapiens, UniProt Q16539)
- Construct: GST (N, cleaved yes); made in house; host or cells: E. coli DH10B
- Measurement description: p38 kinase in vitro assay, phosphorylation of biotinylated PHAS-I with 32P-ATP
- Format: biochemical
- Condition description: @ 1.0 uM
Provide the measurement as a number trailed by its unit.

// known answers, use as guide
INSERT INTO assay_data (compound, measurement_target, measurement_kind, endpoint_result) VALUES
  ('CSc1cccc(NC(=O)NCCc2[nH]nc(-c3ccc(F)cc3)c2-c2ccncc2)c1', 'human p38 kinase alpha (Homo sapiens, UniProt Q16539)', 'P38 alpha kinase % inhib @ conc. (uM)', '47.0% @'),
  ('O=S(=O)(NCCc1[nH]nc(-c2ccc(F)cc2)c1-c1ccncc1)c1ccccc1F', 'human p38 kinase alpha (Homo sapiens, UniProt Q16539)', 'P38 alpha kinase % inhib @ conc. (uM)', '87.0% @'),
  ('CC(C)C(=O)NCCCc1[nH]nc(-c2ccc(F)cc2)c1-c1ccncc1', 'human p38 kinase alpha (Homo sapiens, UniProt Q16539)', 'P38 alpha kinase % inhib @ conc. (uM)', '79.0% @'),
  ('O=C(NCCCc1[nH]nc(-c2ccc(F)cc2)c1-c1ccncc1)c1ccc(I)cc1', 'human p38 kinase alpha (Homo sapiens, UniProt Q16539)', 'P38 alpha kinase % inhib @ conc. (uM)', '66.0% @'),
  ('Cc1ccc(C(=O)NCCCc2[nH]nc(-c3ccc(F)cc3)c2-c2ccncc2)cc1', 'human p38 kinase alpha (Homo sapiens, UniProt Q16539)', 'P38 alpha kinase % inhib @ conc. (uM)', '86.0% @'),
  ('COc1ccccc1C(=O)NCCCc1[nH]nc(-c2ccc(F)cc2)c1-c1ccncc1', 'human p38 kinase alpha (Homo sapiens, UniProt Q16539)', 'P38 alpha kinase % inhib @ conc. (uM)', '68.0% @'),
  ('O=S(=O)(NCCCc1[nH]nc(-c2ccc(F)cc2)c1-c1ccncc1)c1ccc(F)cc1', 'human p38 kinase alpha (Homo sapiens, UniProt Q16539)', 'P38 alpha kinase % inhib @ conc. (uM)', '78.0% @'),
  ('O=C(NCCCc1[nH]nc(-c2ccc(F)cc2)c1-c1ccncc1)c1ccccn1', 'human p38 kinase alpha (Homo sapiens, UniProt Q16539)', 'P38 alpha kinase % inhib @ conc. (uM)', '69.0% @');

Suppose we examine the compound "CCN(CC)C(=O)NCCc1[nH]nc(-c2ccc(F)cc2)c1-c1ccncc1" ; what P38 alpha kinase % inhib @ conc. (uM) value has been reported?
67.0% @

// query P38 alpha kinase % inhib @ conc. (uM) value for entry "O=C(NCCc1[nH]nc(-c2ccc(F)cc2)c1-c1ccncc1)c1ccccc1I"
65.0% @

May I ask what P38 alpha kinase % inhib @ conc. (uM) has been recorded for "O=C(NCCCc1[nH]nc(-c2ccc(F)cc2)c1-c1ccncc1)C1CCCC1" ?
79.0% @

Query (compound): COc1ccc(NC(=O)NCCc2[nH]nc(-c3ccc(F)cc3)c2-c2ccncc2)cc1 [Example B-0978] ; field requested: P38 alpha kinase % inhib @ conc. (uM)
59.0% @

Name the recorded P38 alpha kinase % inhib @ conc. (uM) for "CC(C)OC(=O)NCCc1[nH]nc(-c2ccc(F)cc2)c1-c1ccncc1" .
85.0% @

Would you mind telling me what P38 alpha kinase % inhib @ conc. (uM) value was observed for "COC(=O)c1ccccc1NC(=O)NCCc1[nH]nc(-c2ccc(F)cc2)c1-c1ccncc1" ?
76.0% @

If you can, please state the reported P38 alpha kinase % inhib @ conc. (uM) value of "O=S(=O)(NCCCc1[nH]nc(-c2ccc(F)cc2)c1-c1ccncc1)c1ccccc1" .
74.0% @

Give its P38 alpha kinase % inhib @ conc. (uM) value. Item: "O=C(NCCCc1[nH]nc(-c2ccc(F)cc2)c1-c1ccncc1)c1cccnc1"
72.0% @

For "CCOC(=O)CCNC(=O)NCCc1[nH]nc(-c2ccc(F)cc2)c1-c1ccncc1" , what is its reported P38 alpha kinase % inhib @ conc. (uM)?
69.0% @
